- System: L1210 leukemia ip in BDF1 mice, survival T/C
- Procedure Details: NCI In Vivo Anticancer Drug Screen. Data for tumor model L1210 Leukemia (intraperitoneal) in B6D2F1 (BDF1) mice
- Measurement Conditions: endpoint: mean survival time; dose: 100.0 mg/kg/injection; schedule: Q01DX001 (ip); vehicle: Klucel (hydroxypropylcellulose) (HPC); higher = longer survival
Inconclusive results and toxic doses are left out.
T/C for assorted compounds

Compound: O=C(O)CCc1c(O)cc(Br)c(O)c1Br
T/C: 90 % of control
//
Compound: Cc1ccc(S(=O)(=O)OCC(O)C2OCOC3COCOC32)cc1 (stereo not given)
T/C: 97 % of control

Request: So what does the record say about T/C for `CCCCCCCCCCCCCCCCOc1ccc(C(C)(C)C)cc1` ?
Response: 93 % of control

Request: How about this compound: `O=C(O)c1cccc(C#Cc2ccccc2)c1`
Response: 97 % of control

Request: Consider next the compound `O=C(O)CSc1ccccc1C(=O)O` in the same way.
Response: 96 % of control

Request: Do the same for O=C1CC(N2CCOCC2)c2ccccc21 (stereo not given) please
Response: 98 % of control

Request: What do you get for `Nc1cc2ccc3ccccc3c2c2ccccc12` ?
Response: 110 % of control

---

- Tested on: L1210 leukemia ip in BDF1 mice, survival T/C
- Procedure Details: NCI In Vivo Anticancer Drug Screen. Data for tumor model L1210 Leukemia (intraperitoneal) in B6D2F1 (BDF1) mice
- Measurement Conditions: endpoint: mean survival time; dose: 75.0 mg/kg/injection; schedule: Q04DX003 (ip); vehicle: Klucel (hydroxypropylcellulose) (HPC); higher = longer survival
Inconclusive results and toxic doses are left out.
Endpoint Label: T/C

A selection of reference data follows.
Molecule: Cc1ccc(S(=O)(=O)OCC2Oc3ccccc3O2)cc1
T/C: 93 % of control
--
Molecule: CCOC(=O)C(O)(CC)c1ccncc1Br (stereo unspecified)
T/C: 95 % of control
--
Molecule: O=S1(=O)C(c2ccccc2)CC1c1ccccc1 (stereo unspecified)
T/C: 107 % of control

Request: What T/C appears in the records for this molecule with L1210 leukemia ip in BDF1 mice, survival T/C? `COC(=O)c1coc(C(=O)N2CCCC2)c1C(=O)O`
Response: 93 % of control

Request: And then `CCCCN1C(=O)c2cccnc2C1=O` , what is it?
Response: 102 % of control

Request: Now give it for `O=C1CCC2CC1CCC2=O` too.
Response: 97 % of control

---

- Tested on: L1210 leukemia ip in BDF1 mice, survival T/C
- Procedure Details: NCI In Vivo Anticancer Drug Screen. Data for tumor model L1210 Leukemia (intraperitoneal) in B6D2F1 (BDF1) mice
- Measurement Conditions: endpoint: mean survival time; dose: 400.0 mg/kg/injection; schedule: Q04DX003 (ip); vehicle: Klucel (hydroxypropylcellulose) (HPC); higher = longer survival
Inconclusive results and toxic doses are left out.
Endpoint Label: T/C

Compound: COc1cc(N)c2c(c1N)C(=O)c1ccccc1C2=O
Assay System: L1210 leukemia ip in BDF1 mice, survival T/C
T/C: 100 % of control
--
Compound: O=C(NCCCl)Oc1cccc2c1CCCC2
Assay System: L1210 leukemia ip in BDF1 mice, survival T/C
T/C: 100 % of control
--
Compound: O=[N+]([O-])c1cnc2ccnn2c1
Assay System: L1210 leukemia ip in BDF1 mice, survival T/C
T/C: 100 % of control
--
Compound: Cc1ccc(S(=O)(=O)Oc2ccc(I)cc2)cc1
Assay System: L1210 leukemia ip in BDF1 mice, survival T/C
T/C: 97 % of control
--
Compound: CC1CNC(=S)S1 (configuration not stated)
Assay System: L1210 leukemia ip in BDF1 mice, survival T/C
T/C: 102 % of control

Request: Consider the compound `CSc1nc(SC)c(Cl)c(C(Cl)Cl)n1` and give its measured T/C.
Response: 102 % of control

Request: Another compound to look at: `C=CCc1c(C)nc(N)[nH]c1=O`
Response: 102 % of control
